Molecular target: PAK1 (Homo sapiens)
Sequence (Q13153 whole entry): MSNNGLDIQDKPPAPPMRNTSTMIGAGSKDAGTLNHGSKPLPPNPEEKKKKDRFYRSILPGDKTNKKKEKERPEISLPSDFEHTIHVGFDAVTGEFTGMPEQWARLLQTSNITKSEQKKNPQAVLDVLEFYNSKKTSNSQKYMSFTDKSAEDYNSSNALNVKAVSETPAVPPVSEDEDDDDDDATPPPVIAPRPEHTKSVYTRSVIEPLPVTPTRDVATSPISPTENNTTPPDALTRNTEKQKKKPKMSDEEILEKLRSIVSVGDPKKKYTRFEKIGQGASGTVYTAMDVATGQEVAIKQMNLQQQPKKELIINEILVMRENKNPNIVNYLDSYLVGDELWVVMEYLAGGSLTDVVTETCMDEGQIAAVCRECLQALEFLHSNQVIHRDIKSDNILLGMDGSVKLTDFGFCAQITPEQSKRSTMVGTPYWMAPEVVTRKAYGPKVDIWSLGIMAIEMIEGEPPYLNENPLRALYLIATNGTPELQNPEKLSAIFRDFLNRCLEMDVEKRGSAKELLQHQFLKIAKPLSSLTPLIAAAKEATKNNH
Settings: binder
ENDPOINT: dTm PAK1 (°C)

1) COc1cc(N2CCOCC2)ccc1Nc1ncc2cc(-c3ccc(-c4cccc(C)n4)cc3Cl)c(=O)n(CCCCN)c2n1 [compound 35] : 5.0
2) Cc1cccc(-c2ccc(-c3cc4cnc(NCCCN5CCNCC5)nc4n(CCCCN)c3=O)c(Cl)c2)n1 [compound 29] : 5.0
3) Cc1cccc(-c2ccc(-c3cc4cnc(NC(CO)CO)nc4n(CCCCN)c3=O)c(Cl)c2)n1 [compound 24] : 5.1

Attribution: paper doi:10.1101/2023.11.24.568596v1
